experiment: Acute toxicity in mice, intraperitoneal (Table 9); settings: mouse, in vivo, ip
Readout Name: LD50 (mg/kg)
Please give a number only; it is taken to be in mg/kg.

>>> print(df.to_string())
                                   compound  readout_name  observed_value
0  CC1(C)S[C@@H]2[C@H](NC(=O)[C@H](NC(=O)c3ccnnc3O)c3ccc(O)cc3)C(=O)N2[C@H]1C(=O)O [Compound (I)]          LD50            7100

Query compound follows.
In: // query LD50 value for entry CC1(C)S[C@@H]2[C@H](NC(=O)[C@H](NC(=O)c3cnc4cccnc4c3O)c3ccc(O)cc3)C(=O)N2[C@H]1C(=O)O [Compound (C), reference compound]
Out: 3100

* * *

assay: Urinary excretion rate in rats after intramuscular administration (Table 8); format: in vivo, Wistar-HLA strain rats; settings: rat, urine, im, 20 mg/kg, male rats, intramuscular 20 mg/kg, 6-24 hr.; sodium salt
Readout Name: dose excreted at 24 h (%)
Write the number in % without appending the unit.

In: I would be grateful if you could share the reported dose excreted at 24 h for CC1(C)S[C@@H]2[C@H](NC(=O)[C@H](NC(=O)c3ccnnc3O)c3ccc(O)cc3)C(=O)N2[C@H]1C(=O)O .
Out: 1

In: I would be grateful if you could share the reported dose excreted at 24 h for CC1(C)S[C@@H]2[C@H](NC(=O)[C@H](NC(=O)c3cnc4cccnc4c3O)c3ccc(O)cc3)C(=O)N2[C@H]1C(=O)O [Compound (C), reference compound] .
Out: 0.5

* * *

experiment: Serum level in mice after subcutaneous administration (Table 7); assay type: in vivo, ICR-SLC strain mice; settings: mouse, sc, subcutaneous 50 mg/kg, 2 hr., sodium salt
Readout Name: concentration at 2 h (ng/mL)
Entry rule: numbers only, all in ng/mL.

>>> print(df.to_string())
                                   molecule  observed_value
0  CC1(C)S[C@@H]2[C@H](NC(=O)[C@H](NC(=O)c3cnc4cccnc4c3O)c3ccc(O)cc3)C(=O)N2[C@H]1C(=O)O [Compound (C), reference compound]            5000

Query molecule follows.
In: What value of concentration at 2 h has been reported for the following molecule? CC1(C)S[C@@H]2[C@H](NC(=O)[C@H](NC(=O)c3ccnnc3O)c3ccc(O)cc3)C(=O)N2[C@H]1C(=O)O
Out: 3000

* * *

assay: Protein-binding rate in human serum (Table 6); format: in vitro ADME; conditions: human, serum, Ultrafiltration method; sodium salt
Readout Name: fraction unbound
Give the figure by itself; no unit, no explanation.

>>> df
                                   compound  observed_value
0  CC1(C)S[C@@H]2[C@H](NC(=O)[C@H](NC(=O)c3ccnnc3O)c3ccc(O)cc3)C(=O)N2[C@H]1C(=O)O            0.42

In: Return reported fraction unbound; argument: CC1(C)S[C@@H]2[C@H](NC(=O)[C@H](NC(=O)c3cnc4cccnc4c3O)c3ccc(O)cc3)C(=O)N2[C@H]1C(=O)O [Compound (C), reference compound]
Out: 0.1
